Please provide measured concentration at 1 h for the entries that follow.
- assay-method-text: Food effect on administration of sepiapterin: plasma sepiapterin and BH4 concentrations, fasted vs fed
- Format: in vivo, human
- test-context: human, plasma, oral, 10 mg/kg, fed (high-fat meal); sepiapterin 10 mg/kg oral; 1 h; read-out: Concentration in Plasma, Minimum

{"columns": ["molecule", "concentration at 1 h"],
 "data": [
  ["C[C@H](O)[C@H](O)[C@H]1CNc2nc(N)[nH]c(=O)c2N1 [BH4, Tetrahydrobiopterin]", "42.3 nM"]
]}

Q) Give its concentration at 1 h value. Item: C[C@H](O)C(=O)C1=Nc2c(nc(N)[nH]c2=O)NC1 [sepiapterin, Sepiapterin]
A) 0 nM

###

- assay-method-text: Food effect on administration of sepiapterin: plasma sepiapterin and BH4 concentrations, fasted vs fed
- Type: in vivo, human
- test-context: human, plasma, oral, 10 mg/kg, fed (high-fat meal); sepiapterin 10 mg/kg oral; 4 h; read-out: Concentration in Plasma, Median
Please provide measured concentration at 4 h for the entries that follow.
Give bare numbers, in nM.

{"columns": ["molecule", "result-type", "value"],
 "data": [
  ["C[C@H](O)[C@H](O)[C@H]1CNc2nc(N)[nH]c(=O)c2N1 [BH4, Tetrahydrobiopterin]", "concentration at 4 h", 1010]
]}

Turning now to a further molecule:
Q) Give its concentration at 4 h value. Item: C[C@H](O)C(=O)C1=Nc2c(nc(N)[nH]c2=O)NC1 [sepiapterin, Sepiapterin]
A) 2.5

###

- assay-method-text: Pharmacokinetic analysis of multiple doses of sepiapterin (once daily for 7 days, fed subjects)
- Type: in vivo, human
- test-context: human, plasma, 5 mg/kg, Day 7; sepiapterin 5 mg/kg once daily; fed; read-out: AUC0-24
- Text: Methods: Three cohorts of eight fed subjects each were randomized to receive once-daily sepiapterin or placebo for 7 days in a 6:2 ratio. A sentinel dose strategy was also used for administration of the highest sepiapterin dose.
result-type: AUC(0-t) (ng·h/mL)
One number for each entry, in ng·h/mL.

Q) Give its AUC(0-t) value. Item: C[C@H](O)[C@H](O)[C@H]1CNc2nc(N)[nH]c(=O)c2N1 [BH4, Tetrahydrobiopterin]
A) 1070
